Overview of reported vapor or sublimation pressure across a group of molecules:
details: 303.15 K; Liquid; Closed cell (Static) method

| smiles_string | display_unit | vapor or sublimation pressure |
| --- | --- | --- |
| FCC(F)(F)F | kPa | 767 |
| CC(F)(F)F | kPa | 1435.2 |
| C=C(F)C(F)(F)F | kPa | 780.5 |
| FC(C(F)(F)F)C(F)(F)F | kPa | 524.5 |

---

Overview of reported vapor or sublimation pressure across a group of compounds:
conditions: 323.15 K; Liquid; Closed cell (Static) method

| compound | display_unit | vapor or sublimation pressure |
| --- | --- | --- |
| FCC(F)(F)F [1,1,1,2-tetrafluoroethane] | kPa | 1314.7 |
| CC(F)(F)F [1,1,1-trifluoroethane] | kPa | 2309.7 |
| C=C(F)C(F)(F)F [2,3,3,3-tetrafluoro-1-propene] | kPa | 1300.7 |
| FC(C(F)(F)F)C(F)(F)F [1,1,1,2,3,3,3-heptafluoropropane] | kPa | 912.4 |

---

Overview of reported vapor or sublimation pressure across a group of compounds:
settings: 283.15 K; Liquid; Closed cell (Static) method
Numbers after ± are expanded uncertainties.

| compound | vapor or sublimation pressure |
| --- | --- |
| C=C(F)C(F)(F)F [2,3,3,3-tetrafluoro-1-propene] | 436.5 ± 7 kPa |
| CC(F)(F)F [1,1,1-trifluoroethane] | 838.6 ± 7.1 kPa |
| FC(C(F)(F)F)C(F)(F)F [1,1,1,2,3,3,3-heptafluoropropane] | 278.9 ± 7 kPa |
| FCC(F)(F)F [1,1,1,2-tetrafluoroethane] | 414 ± 7 kPa |

---

details: 293.15 K; Liquid; Closed cell (Static) method
± gives the expanded uncertainty stated by the source.
Overview of reported vapor or sublimation pressure across a group of compounds:

| smiles_string | vapor or sublimation pressure |
| --- | --- |
| C=C(F)C(F)(F)F | 591 ± 7.1 kPa |
| FC(C(F)(F)F)C(F)(F)F | 388 ± 7 kPa |
| CC(F)(F)F | 1107.9 ± 7.2 kPa |
| FCC(F)(F)F | 571.5 ± 7 kPa |

---

settings: 313.15 K; Liquid; Closed cell (Static) method
± gives the expanded uncertainty stated by the source.
Overview of reported vapor or sublimation pressure across a group of compounds:
experimental_endpoint: vapor or sublimation pressure

| smiles_string | experimental_endpoint | result |
| --- | --- | --- |
| CC(F)(F)F | vapor or sublimation pressure | 1834 ± 7.5 kPa |
| FC(C(F)(F)F)C(F)(F)F | vapor or sublimation pressure | 699 ± 7.1 kPa |
| C=C(F)C(F)(F)F | vapor or sublimation pressure | 1015.6 ± 7.2 kPa |
| FCC(F)(F)F | vapor or sublimation pressure | 1013 ± 7.2 kPa |
